biological target: human M4 receptor (Homo sapiens); construct: expressed in transfected cells; host or cells: CHO cells; experiment: Radioligand ([3H]N-methylscopolamine) binding assay, membranes from CHO cells expressing human M4 receptor; conditions: Ki against human M4 receptor; membranes from CHO cells; tritiated N-methylscopolamine 1.5 nM; read-out: K
Sequence (P08173 whole entry): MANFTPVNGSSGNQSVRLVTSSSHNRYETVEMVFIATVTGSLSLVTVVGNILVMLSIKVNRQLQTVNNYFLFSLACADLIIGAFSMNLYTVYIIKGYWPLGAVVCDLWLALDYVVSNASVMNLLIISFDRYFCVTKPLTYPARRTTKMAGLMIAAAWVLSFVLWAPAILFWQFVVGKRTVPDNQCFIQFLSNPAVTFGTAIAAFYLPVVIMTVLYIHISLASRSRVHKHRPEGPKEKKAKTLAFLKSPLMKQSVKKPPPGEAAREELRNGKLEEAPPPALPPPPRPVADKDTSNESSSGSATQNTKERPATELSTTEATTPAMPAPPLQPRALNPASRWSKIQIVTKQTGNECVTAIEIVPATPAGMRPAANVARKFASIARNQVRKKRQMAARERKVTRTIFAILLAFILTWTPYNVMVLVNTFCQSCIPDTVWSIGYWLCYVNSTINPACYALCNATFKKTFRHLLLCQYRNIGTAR
pKi: −log10 of the molar value.
MEASUREMENT_LABEL: pKi

INSERT INTO assay_data (compound, target_or_system, measurement_label, result) VALUES
  ('C[C@@H]1CN(c2ncc(C(F)(F)F)cn2)C[C@H](C)N1C(=O)NC1CC2(C1)CN(Cc1cccnc1)C2 [Compound 303]', 'human M4 receptor (Homo sapiens)', 'pKi', '7.00 to 8.00'),
  ('C[C@@H]1CN(c2ncc(C(F)(F)F)cn2)[C@@H](C)CN1C(=O)NC1CC2(C1)CN(Cc1ccc(Cl)cc1)C2 [Compound 256]', 'human M4 receptor (Homo sapiens)', 'pKi', '> 8.00'),
  ('C[C@@H]1CN(c2ncc(C(F)(F)F)cn2)C[C@H](C)N1C(=O)NC1CC2(C1)CN(CC1=CCCCC1)C2 [Compound 313]', 'human M4 receptor (Homo sapiens)', 'pKi', '7.00 to 8.00'),
  ('C[C@@H]1CN(c2ccc(C(F)(F)F)cc2)C[C@@H](C)N1C(=O)NC1CC2(C1)CN(Cc1ccccc1)C2 [Compound 51]', 'human M4 receptor (Homo sapiens)', 'pKi', '> 8.00'),
  ('C[C@@H]1CN(c2ncc(C#N)cn2)C[C@H](C)N1C(=O)OC1CC2(C1)CN(Cc1ccc(Cl)cc1)C2 [Compound 475]', 'human M4 receptor (Homo sapiens)', 'pKi', '7.00 to 8.00'),
  ('C[C@@H]1CN(c2ncc(C(F)(F)F)cn2)C[C@@H](C)N1C(=O)OCC1CC2(C1)CN(Cc1ccccc1)C2 [Compound 144]', 'human M4 receptor (Homo sapiens)', 'pKi', '7.00 to 8.00'),
  ('CC(=O)Nc1ccc(CN2CC3(CC(NC(=O)N4[C@H](C)CN(c5ncc(C(F)(F)F)cn5)C[C@@H]4C)C3)C2)cc1 [Compound 321]', 'human M4 receptor (Homo sapiens)', 'pKi', '6.00 to 7.00'),
  ('C[C@@H]1CN(c2ncc(C(F)(F)F)cn2)C[C@@H](C)N1C(=O)NCC1CC2(C1)CN(Cc1ccccc1)C2 [Compound 68]', 'human M4 receptor (Homo sapiens)', 'pKi', '7.00 to 8.00'),
  ('C[C@@H]1CN(c2ncc(C(F)(F)F)cn2)CCN1C(=O)OCC1CC2(C1)CN(Cc1ccccc1)C2 [Compound 133]', 'human M4 receptor (Homo sapiens)', 'pKi', '7.00 to 8.00'),
  ('C[C@@H]1CN(c2ncc3cc(F)ccc3n2)[C@@H](C)CN1C(=O)OC1CC2(C1)CN(Cc1ccccc1)C2 [Compound 484]', 'human M4 receptor (Homo sapiens)', 'pKi', '> 8.00'),
  ('C[C@@H]1CN(c2ncc3ccccc3n2)C[C@H](C)N1C(=O)OC1CC2(C1)CN(Cc1ccccc1)C2 [Compound 377]', 'human M4 receptor (Homo sapiens)', 'pKi', '6.00 to 7.00'),
  ('C[C@@H]1CN(c2nc3ccc(F)cc3s2)C[C@@H](C)N1C(=O)OC1CC2(C1)CN(Cc1ccccc1)C2 [Compound 369]', 'human M4 receptor (Homo sapiens)', 'pKi', '7.00 to 8.00'),
  ('C[C@@H]1CN(c2ncc3ccccc3n2)[C@@H](C)CN1C(=O)NC1CC2(C1)CN(Cc1ccccc1)C2 [Compound 212]', 'human M4 receptor (Homo sapiens)', 'pKi', '> 8.00'),
  ('C[C@@H]1CN(c2ccc(C(F)(F)F)cc2)CCN1C(=O)OC1CC2(C1)CN(Cc1ccccc1)C2 [Compound 528]', 'human M4 receptor (Homo sapiens)', 'pKi', '7.00 to 8.00');
